Source of measurements: paper PMC11879040

System: Potassium Voltage-Gated Channel Kv non-selective, KCNQ1 (r)
experiment notes: IPP KCNQ1 binding (antagonist radioligand)
Set-up: species or system rat
condition label: IPP screening at 100 uM; control α-dendrotoxin
Measured Specific binding by item
State just the number; it will be interpreted in %.

Recorded results for 2 compounds are shown here.
CC(C)Cc1ccc(C(C)C(=O)O)cc1 (stereo not shown) | -8.5
O=C(O)c1ccc2c(c1)C(=O)OC2=O [Trimellitic anhydride] | -6.6

stdin: Field request: Specific binding | item: CCN(CC)CCNC(=O)c1cc(Cl)c(N)cc1OC [Metoclopramide]
stdout: -1.0

stdin: Field request: Specific binding | item: CCOC(=O)c1ccc(N)cc1 [Benzocaine, Ethyl 4-aminobenzoate]
stdout: 3.6

stdin: Field request: Specific binding | item: CCCCCCC(O)CO (stereo not shown)
stdout: -4.4

----------
Measured IPP screening %, Coactivator recruitment by item
target or test system: Estrogen receptor, ER1 (h) (Homo sapiens)
Construct: purchased Eurofins Cerep (SafetyScreen44-based IPP panel)
Sequence (P03372 whole entry): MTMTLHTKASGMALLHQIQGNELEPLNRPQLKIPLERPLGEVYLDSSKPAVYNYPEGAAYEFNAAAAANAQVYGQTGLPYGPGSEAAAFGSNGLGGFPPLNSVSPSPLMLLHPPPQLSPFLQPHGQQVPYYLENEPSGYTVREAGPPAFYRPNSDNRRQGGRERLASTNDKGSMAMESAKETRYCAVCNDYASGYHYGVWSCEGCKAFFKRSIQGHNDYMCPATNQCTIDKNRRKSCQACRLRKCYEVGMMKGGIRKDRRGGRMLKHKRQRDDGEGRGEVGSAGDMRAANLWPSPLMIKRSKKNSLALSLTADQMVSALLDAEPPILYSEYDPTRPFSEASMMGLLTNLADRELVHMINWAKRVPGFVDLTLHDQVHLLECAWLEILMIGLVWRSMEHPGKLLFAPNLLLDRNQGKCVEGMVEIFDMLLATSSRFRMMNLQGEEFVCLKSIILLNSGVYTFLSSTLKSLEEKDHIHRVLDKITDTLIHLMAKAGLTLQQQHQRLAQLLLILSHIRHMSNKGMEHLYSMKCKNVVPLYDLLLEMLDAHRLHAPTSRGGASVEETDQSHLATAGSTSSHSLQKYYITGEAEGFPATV
experiment notes: IPP ER1 coactivator recruitment (antagonist)
Assay type: biochemical
condition label: 10 uM, estriol
State just the number; it will be interpreted in %.

CCOP(=S)(OCC)Oc1nc(Cl)c(Cl)cc1Cl | 9.0

stdin: Field request: IPP screening %, Coactivator recruitment | item: "O=[N+]([O-])c1cc(C(F)(F)F)c(Cl)c([N+](=O)[O-])c1Nc1ncc(C(F)(F)F)cc1Cl"
stdout: 46.0

stdin: Field request: IPP screening %, Coactivator recruitment | item: "CC(=O)N1CCN(c2ccc(OC[C@H]3CO[C@](Cn4ccnc4)(c4ccc(Cl)cc4Cl)O3)cc2)CC1"
stdout: 24.0

stdin: Field request: IPP screening %, Coactivator recruitment | item: "O=CCCCC=O"
stdout: -9.0

stdin: Field request: IPP screening %, Coactivator recruitment | item: "CC(C)(C)c1ccc(CCOc2ncnc3ccccc23)cc1"
stdout: 4.0

stdin: Field request: IPP screening %, Coactivator recruitment | item: CC1(C)C(C=C(Cl)Cl)C1C(=O)OC(C#N)c1cccc(Oc2ccccc2)c1 (stereo not drawn)
stdout: 0.0

----------
Measured Specific binding by item
System: Potassium Voltage-Gated Channel Kv non-selective, KCNQ1 (r)
experiment notes: IPP KCNQ1 binding (antagonist radioligand)
Parameters: species or system rat
condition label: IPP screening at 100 uM; control α-dendrotoxin
Peptide text beside a SMILES is read from it.
State just the number; it will be interpreted in %.

Recorded results for 7 molecules are shown here.
COc1ccc(Cl)cc1C(=O)NCCc1ccc(S(=O)(=O)NC(=O)NC2CCCCC2)cc1 [Glybenclamide] | 3.6
O=S(=O)(O)NC1CCCCC1 [Cyclamate, Sodium cyclohexylsulfamate] | 0.6
CC1(C)O[C@@H]2[C@@H](CO[C@@]3(COS(N)(=O)=O)OC(C)(C)O[C@@H]23)O1 [Topiramate] | -2.7
C[C@@H]1C[C@H]2[C@@H]3CCC4=CC(=O)C=C[C@]4(C)[C@@]3(F)[C@@H](O)C[C@]2(C)[C@@]1(O)C(=O)CO [Dexamethasone] | -4.1
Nc1cc([N+](=O)[O-])cc(Cl)c1O [2-Amino-6-chloro-4-nitrophenol] | 13.7
Cc1c(O)cccc1O [2-methyl-1,3-benzenediol, 2-Methylbenzene-1,3-diol] | 27.5
Nc1ccc(NCCO)c([N+](=O)[O-])c1 [HC Red 3, 2-(4-Amino-2-nitroanilino)ethan-1-ol] | -2.7

Okay, now this molecule:
stdin: Field request: Specific binding | item: COC(=O)[C@H](Cc1ccccc1)NC(=O)[C@@H](N)CC(=O)O [Aspartame] (H-Asp-Phe-OMe)
stdout: 2.5
